Molecular target: PI5P4Kα (Homo sapiens, UniProt P48426)
Sequence (P48426 1-406): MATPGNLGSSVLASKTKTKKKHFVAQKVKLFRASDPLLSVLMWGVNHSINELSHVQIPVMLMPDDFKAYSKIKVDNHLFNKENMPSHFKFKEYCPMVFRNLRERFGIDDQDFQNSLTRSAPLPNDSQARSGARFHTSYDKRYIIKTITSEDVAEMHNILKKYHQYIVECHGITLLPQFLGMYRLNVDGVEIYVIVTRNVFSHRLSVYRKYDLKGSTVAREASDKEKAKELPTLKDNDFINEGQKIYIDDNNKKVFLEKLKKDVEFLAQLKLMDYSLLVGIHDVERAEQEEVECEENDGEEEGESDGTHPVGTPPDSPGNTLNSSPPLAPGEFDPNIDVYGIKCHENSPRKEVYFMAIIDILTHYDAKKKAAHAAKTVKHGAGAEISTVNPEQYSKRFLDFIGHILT
Conditions: ADP-Glo; footnote a: inconsistent replicates, value shown is upper limit
readout: PI5P4Kα pIC50
Numbers only.

compound string: CS(=O)(=O)c1ccc(Nc2ncnc3sc(-c4cccnc4)cc23)cc1
readout: PI5P4Kα pIC50
recorded value: 5.3
--
compound string: Cc1ncccc1-c1cc2ncnc(Nc3ccc(C4CC4)cc3)c2s1
readout: PI5P4Kα pIC50
recorded value: 7.0
--
compound string: Cc1ccc(Nc2ncnc3sc(-c4cccnc4C)cc23)c(C)c1
readout: PI5P4Kα pIC50
recorded value: 5.5
--
compound string: CSc1ccc(Nc2ncnc3cc(-c4cccnc4Cl)sc23)cc1
readout: PI5P4Kα pIC50
recorded value: 7.3
--
compound string: COc1ccc(Nc2ncnc3sc(-c4cccnc4C)cc23)cc1
readout: PI5P4Kα pIC50
recorded value: 5.9
--
compound string: CSc1ccc(Nc2ncnc3sc(-c4c(C)noc4C)cc23)cc1
readout: PI5P4Kα pIC50
recorded value: 6.8
--
compound string: Cc1cccc(Nc2ncnc3sc(-c4cccnc4C)cc23)c1
readout: PI5P4Kα pIC50
recorded value: 5.5
--
compound string: CSc1ccc(Nc2ncnc3sc(-c4cnoc4)cc23)cc1
readout: PI5P4Kα pIC50
recorded value: 6.6
--
compound string: Cc1cnccc1-c1cc2c(Nc3ccc(S(C)(=O)=O)cc3)ncnc2s1
readout: PI5P4Kα pIC50
recorded value: 6.2
--
compound string: CS(=O)(=O)c1ccc(Nc2ncnc3cc(-c4cccnc4Cl)sc23)cc1
readout: PI5P4Kα pIC50
recorded value: 6.5

Please give PI5P4Kα pIC50, item by item, for the list that follows.
1. Cn1cc(-c2cc3c(Nc4ccc(S(C)(=O)=O)cc4)ncnc3s2)cn1
2. CS(=O)(=O)c1ccc(Nc2ncnc3sc(-c4cccnc4Cl)cc23)cc1
3. Cc1ccncc1-c1cc2c(Nc3ccc(S(C)(=O)=O)cc3)ncnc2s1
4. CS(=O)(=O)c1ccc(Nc2ncnc3sc(-c4ccncc4)cc23)cc1
5. Cc1ncccc1-c1cc2ncnc(Nc3ccc(S(F)(F)(F)(F)F)cc3)c2s1

[5.2, 6.2, 6.0, 5.9, 6.2]

Please give PI5P4Kα pIC50, item by item, for the list that follows.
1. CS(=O)(=O)c1ccc(Nc2ncnc3sc(-c4cn[nH]c4)cc23)cc1
2. COc1ccc(Nc2ncnc3sc(-c4ccncc4C)cc23)cc1

[5.9, 6.2]

Please give PI5P4Kα pIC50, item by item, for the list that follows.
1. Cc1ncccc1-c1cc2ncnc(Nc3ccc4ncoc4c3)c2s1
2. Cc1ccc(Nc2ncnc3sc(-c4cccnc4C)cc23)cc1C
3. Cc1ccc(Nc2ncnc3sc(-c4cccnc4C)cc23)cc1
4. CSc1ccc(Nc2ncnc3sc(-c4cccnc4C)cc23)cc1
5. Cc1ncccc1-c1cc2c(Nc3ccc(C4CC4)cc3)ncnc2s1
6. CSc1ccc(Nc2ncnc3sc(-c4ccncc4C)cc23)cc1
7. Cc1ncccc1-c1cc2c(Nc3ccc(S(C)(=O)=O)cc3)ncnc2s1
8. CSc1ccc(Nc2ncnc3sc(-c4cccnc4Cl)cc23)cc1

1. 5.5
2. 6.5
3. 6.2
4. 6.6
5. 6.6
6. 6.9
7. 6.0
8. 6.6
